# Test system: 598228-144-R-J1-PDC complex spheroids, viability;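 further: spheroids exposed to compounds for seven days before readout; 100% = DMSO vehicle control wells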
# Experiment Description: Anticancer human tumor 598228-144-R-J1-PDC patient-derived serous endometrial adenocarcinoma cell line growth inhibition [CLK]
# Condition Summary: second compound 10 µM; first compound 1 µM; active compounds read low
Readout Label: viability, T/C (%)
Number only, in %; omit the unit.

Lookup: viability, T/C / 598228-144-R-J1-PDC complex spheroids, viability / Nc1ccn(C2OC(CO)C(O)C2(F)F)c(=O)n1 (stereo not given) + CNC(=O)c1ccc(Nc2nc(OC3CCCC3)c3c(-c4ccc5nc(C)oc5c4)c[nH]c3n2)c(OC)c1
22.6

Lookup: viability, T/C / 598228-144-R-J1-PDC complex spheroids, viability / O=c1[nH]cc(F)c(=O)[nH]1 + CN1CCN(c2cc(C(=O)Nc3cc4cc(-c5cnn(C)c5)ccc4cn3)ccn2)CC1
1.01

Lookup: viability, T/C / 598228-144-R-J1-PDC complex spheroids, viability / COC1C=CCC(C)C(C)S(=O)(=O)NC(=O)c2ccc3c(c2)N(CC2CCC21)CC1(CCCc2cc(Cl)ccc21)CO3 (stereo not given) + CNC(=O)c1ccc(Nc2nc(OC3CCCC3)c3c(-c4ccc5nc(C)oc5c4)c[nH]c3n2)c(OC)c1
51.9

These data points were gathered from PubChem BioAssay AID2060614.
